Test: Blood plasma levels after oral administration to mice
Format: in vivo
Conditions: mouse, 10 mg/kg, heading: AUC0-24, oral gavage, 5 mL/Kg of 2 mg/mL lipid emulsion
Protocol: Exemplary compounds were administered orally to animals (i.e., mice or rats), and then blood samples were taken from the animal at set time points and analyzed for the amount of test compound in the blood sample. […] 55 μL standards, 55 μL QC samples, and 55 μL unknown samples were added to 200 μL of acetonitrile for precipitating protein respectively. […] After centrifugation at 4 degree Celsius (i.e., 15000 rpm for 5 min) a 20 μL aliquot of the supernatant was analyzed by LC/MS. […]
Measured Parameter: AUC(0-t) (ng·h/mL)
Record the value in ng·h/mL, omitting the unit from your answer.

Read the entry O=C(/N=C(/Nc1cc(F)cc(Cl)c1)Nc1cc(C(F)(F)F)[nH]n1)c1ccc(F)c(F)c1 [Compound B-1, reference compound] and write its reported AUC(0-t).
4530

---

Test: Blood plasma levels after oral administration to mice
Format: in vivo
Conditions: mouse, 10 mg/kg, oral gavage, 5 mL/Kg of 2 mg/mL lipid emulsion
Assignment: determine reported Cmax for the given molecules.
Write the numeric value and follow it with the unit.

Read the entry O=C(/N=C(/Nc1cc(F)cc(Cl)c1)Nc1cc(C(F)(F)F)[nH]n1)c1ccc(F)c(F)c1 [Compound B-1, reference compound] and write its reported Cmax.
609 ng/mL

Read the entry Cc1c(N/C(=N\C(=O)c2ccc(F)c(F)c2)Nc2cc(F)cc(Cl)c2)n[nH]c1C(F)(F)F [Compound 1] and write its reported Cmax.
1590 ng/mL

---

Experiment: Blood plasma levels after oral administration to rats
Type: in vivo
Conditions: rat, 10 mg/kg, oral gavage, 5 mL/Kg of 2 mg/mL lipid emulsion
Measured Parameter: Cmax

Read the entry Cc1c(N/C(=N\C(=O)c2cccc(Cl)c2)Nc2cc(F)cc(Cl)c2)n[nH]c1C(F)(F)F [Compound A-1] and write its reported Cmax.
1440 ng/mL

Read the entry O=C(/N=C(/Nc1cc(F)cc(Cl)c1)Nc1cc(C(F)(F)F)[nH]n1)c1cccc(Cl)c1 [Compound B-2, reference compound] and write its reported Cmax.
541 ng/mL

Entry source: patent US9815791B2
